Just for reference, ChEMBL document CHEMBL4390673 is where these values come from.

System: Polyketide synthase Pks13 (Mycobacterium tuberculosis (strain ATCC 25618 / H37Rv)), I6X8D2 [D1644G,N1640K]
Test: Inhibition of Pks13 D1644G/N1640K double mutant thioesterase domain in multidrug-resistant Mycobacterium tuberculosis V2475 assessed as reduction in bacterial growth by microplate alamar blue assay
measure.name: MIC=<90
I'd appreciate it if you included the unit after the number.

- molecule: "NNC(=O)c1ccncc1"
  result: "16 µg/mL"

input: Provide measured MIC=<90 value, entry: CC1COc2c(N3CCN(C)CC3)c(F)cc3c(=O)c(C(=O)O)cn1c23 (stereo not drawn)
output: 0.5 µg/mL

input: Provide measured MIC=<90 value, entry: O=c1oc2cc(O)ccc2c2oc3ccc(O)c(CN4CCCCC4)c3c12
output: 0.0156 µg/mL

###

System: Polyketide synthase Pks13 (Mycobacterium tuberculosis (strain ATCC 25618 / H37Rv)), I6X8D2 [D1644G,N1640K]
Test: Inhibition of Pks13 D1644G/N1640K double mutant thioesterase domain in Mycobacterium tuberculosis H37Rv assessed as reduction in bacterial growth by microplate alamar blue assay
In this section we review reported MIC=<90 values for a set of compounds.
Kindly answer with a numeric value in µg/mL, unit omitted.

- compound: "C[C@H]1COc2c(N3CCN(C)CC3)c(F)cc3c(=O)c(C(=O)O)cn1c23"
  MIC=<90 / µg/mL: 0.25
- compound: "CC(C)(C)c1cc(O)c(CN2CCCCC2)c2c1oc1c3cc(O)ccc3oc(=O)c12"
  MIC=<90 / µg/mL: 0.125
- compound: "O=c1oc2cc(O)c(O)cc2c2oc3cc(O)c(O)c(CN4CCCCC4)c3c12"
  MIC=<90 / µg/mL: 32

input: Provide measured MIC=<90 value, entry: CC1CCCN(Cc2c(O)ccc3oc4c5ccccc5oc(=O)c4c23)C1 (configuration not stated)
output: 2

input: Provide measured MIC=<90 value, entry: CC1CCCCN1Cc1c(O)ccc2oc3c4ccccc4oc(=O)c3c12 (configuration not stated)
output: 1

input: Provide measured MIC=<90 value, entry: CCOC(=O)c1c(-c2ccccc2)oc2ccc(O)c(CN3CCC(C)CC3)c12
output: 1

input: Provide measured MIC=<90 value, entry: O=c1oc2ccc(O)cc2c2oc3ccc(O)c(CN4CCCCC4)c3c12
output: 0.5

###

Test system: Polyketide synthase Pks13 (Mycobacterium tuberculosis (strain ATCC 25618 / H37Rv)), I6X8D2 [D1644G,N1640K]
Test: Inhibition of Pks13 D1644G/N1640K double mutant thioesterase domain in Mycobacterium tuberculosis H37Rv assessed as reduction in bacterial growth by microplate alamar blue assay
In this section we review reported MIC=<90 values for a set of molecules.

Some molecules with known MIC=<90 results, for comparison:
- structure.smiles: "O=C1CCCN1Cc1c(O)ccc2oc3c4ccccc4oc(=O)c3c12"
  MIC=<90: "> 64 µg/mL"
- structure.smiles: "O=c1oc2ccccc2c2oc3cc([N+](=O)[O-])c(O)c(CN4CCCCC4)c3c12"
  MIC=<90: "> 64 µg/mL"

# evaluate next
input: Provide measured MIC=<90 value, entry: O=c1oc2ccccc2c2oc3cc(Br)c(O)c(CN4CCCCC4)c3c12
output: > 64 µg/mL

###

In this section we review reported MIC=<90 values for a set of molecules.
Tested on: Polyketide synthase Pks13 (Mycobacterium tuberculosis (strain ATCC 25618 / H37Rv)), I6X8D2 [D1644G,N1640K]
Assay: Inhibition of Pks13 D1644G/N1640K double mutant thioesterase domain in Mycobacterium tuberculosis H37Rv assessed as reduction in bacterial growth by microplate alamar blue assay

input: Provide measured MIC=<90 value, entry: CC(C)(C)c1cc(O)c(CN2CCCCC2)c2c1oc1c3ccccc3oc(=O)c12
output: 0.0625 to 0.125 µg/mL

input: Provide measured MIC=<90 value, entry: COc1ccc2oc3c4ccccc4oc(=O)c3c2c1C(=O)N1CCCCC1
output: > 64 µg/mL

input: Provide measured MIC=<90 value, entry: COc1ccc2oc3c4ccccc4oc(=O)c3c2c1CN1CCCCC1=O
output: > 64 µg/mL

input: Provide measured MIC=<90 value, entry: O=C1CCCCN1Cc1c(O)ccc2oc3c4ccccc4oc(=O)c3c12
output: > 64 µg/mL

input: Provide measured MIC=<90 value, entry: O=c1oc2ccccc2c2oc3ccc(O)cc3c12
output: > 64 µg/mL

input: Provide measured MIC=<90 value, entry: COc1ccc2oc3c4ccccc4oc(=O)c3c2c1CN1CCCC1=O
output: > 64 µg/mL

input: Provide measured MIC=<90 value, entry: COc1c(N2C[C@@H]3CCCN[C@@H]3C2)c(F)cc2c(=O)c(C(=O)O)cn(C3CC3)c12
output: 0.0625 to 0.125 µg/mL

input: Provide measured MIC=<90 value, entry: O=C(c1cc2oc3c4ccccc4oc(=O)c3c2cc1O)N1CCCCC1
output: > 64 µg/mL

input: Provide measured MIC=<90 value, entry: COCCOc1ccc2oc3c4ccccc4oc(=O)c3c2c1CN1CCCCC1=O
output: > 64 µg/mL

input: Provide measured MIC=<90 value, entry: COCCOc1ccc2oc3c4ccccc4oc(=O)c3c2c1CN1CCCC1=O
output: > 64 µg/mL
